- target_entity: WD repeat-containing protein 91 (Homo sapiens, UniProt A4D1P6)
- protocol_description: Binding affinity to C-terminal His6-tagged truncated WDR91 (unknown origin) (P392 to A747 residues) expressed in baculovirus-infected Sf9 cells assessed as dissociation constant incubated for 72 to 96 hrs by SPR analysis
parameter_measured: Kd (µM)
Only the number, expressed in µM, is required.

> print(dat)
                                   compound  parameter.measured  result.number
1  Cc1cn2cc(C(=O)NC3(c4ccc(Cl)cc4)COC3)sc2n1                  Kd             11
2  O=C(NC1(c2ccc(Cl)cc2)COC1)c1ccc(C2(O)COC2)cc1                  Kd             20
3  O=C(NC1(c2ccc(Cl)cc2)COC1)c1ccc(N2CCC(O)CC2)cc1                  Kd              6
4  O=C(c1ccc(N2CCC(O)C2)cc1)N1CC(O)(c2ccc(Cl)cc2)C1 (stereo unspecified)                  Kd             16
5   O=C(NC1(c2ccc(Cl)cc2)COC1)c1ccc2snnc2c1                  Kd             14

Next:
Identify measured Kd associated with O=C(NC(CCO)c1ccc(Cl)cc1)c1ccc(CN2CCCC2=O)cc1 (stereo unspecified)
99

###

- target_entity: WD repeat-containing protein 91 (Homo sapiens, UniProt A4D1P6)
- protocol_description: Binding affinity to C-terminal His6-tagged truncated WDR91 (unknown origin) (P392 to A747 residues) expressed in baculovirus-infected Sf9 cells assessed as dissociation constant incubated for 72 to 96 hrs by SPR analysis
pKd values, listed per item
Please report pKd as the negative decimal logarithm of the molar concentration, giving only the number.

> print(dat)
                                   compound                             target.entity  result.number
1  O=C(NC1(c2ccc(Cl)cc2)COC1)c1ccc(-c2cc[nH]n2)s1  WD repeat-containing protein 91 (Homo sapiens, UniProt A4D1P6)           5.10
2  O=C(NC1(c2ccc(Cl)cc2)COC1)c1ccc(CN2CCCC2=O)cc1  WD repeat-containing protein 91 (Homo sapiens, UniProt A4D1P6)           4.96

Identify measured pKd associated with `Nc1ncnc2ccc(C(=O)NC3(c4ccc(Cl)cc4)COC3)cc12`
4.38

Identify measured pKd associated with O=C(NC(CCO)c1ccc(Cl)cc1)c1ccc(N2CCC(O)C2)cc1 (stereo not given)
4.82

Identify measured pKd associated with C=CC(=O)N1CCCc2c(C(=O)NC(c3ccc(Cl)cc3)C3CC3)cccc21 (stereo not given)
4.37

###

- target_entity: WD repeat-containing protein 91 (Homo sapiens) (UniProt A4D1P6)
- protocol_description: Binding affinity to C-terminal His6-tagged truncated WDR91 (unknown origin) (P392 to A747 residues) expressed in baculovirus-infected Sf9 cells assessed as maximum response incubated for 2 hrs relative to control
Active and inactive are the calls of the source. The calls are words filed in the database; no cut-off is given here.
parameter_measured: Rmax

> print(dat)
                                   compound                             target.entity  parameter.measured    result
1  C=CC(=O)Nc1ccc(CC(=O)NC2(c3ccccc3)COC2)cc1  WD repeat-containing protein 91 (Homo sapiens) (UniProt A4D1P6)                Rmax  inactive
2  C=CC(=O)N1CCCc2c(C(=O)NC(c3ccc(Cl)cc3)C3CC3)cccc21 (centres undefined)  WD repeat-containing protein 91 (Homo sapiens) (UniProt A4D1P6)                Rmax       54%
3  C=CC(=O)N1CCCc2c(C(=O)NC(c3ccc(F)cc3)C3CCCCC3)cccc21 (centres undefined)  WD repeat-containing protein 91 (Homo sapiens) (UniProt A4D1P6)                Rmax  inactive
4  C=CC(=O)N1CCCc2c(C(=O)NC3(c4ccc(Cl)cc4)COC3)cccc21  WD repeat-containing protein 91 (Homo sapiens) (UniProt A4D1P6)                Rmax       53%

###

- target_entity: WD repeat-containing protein 91 (Homo sapiens) (UniProt A4D1P6)
- Sequence (whole entry): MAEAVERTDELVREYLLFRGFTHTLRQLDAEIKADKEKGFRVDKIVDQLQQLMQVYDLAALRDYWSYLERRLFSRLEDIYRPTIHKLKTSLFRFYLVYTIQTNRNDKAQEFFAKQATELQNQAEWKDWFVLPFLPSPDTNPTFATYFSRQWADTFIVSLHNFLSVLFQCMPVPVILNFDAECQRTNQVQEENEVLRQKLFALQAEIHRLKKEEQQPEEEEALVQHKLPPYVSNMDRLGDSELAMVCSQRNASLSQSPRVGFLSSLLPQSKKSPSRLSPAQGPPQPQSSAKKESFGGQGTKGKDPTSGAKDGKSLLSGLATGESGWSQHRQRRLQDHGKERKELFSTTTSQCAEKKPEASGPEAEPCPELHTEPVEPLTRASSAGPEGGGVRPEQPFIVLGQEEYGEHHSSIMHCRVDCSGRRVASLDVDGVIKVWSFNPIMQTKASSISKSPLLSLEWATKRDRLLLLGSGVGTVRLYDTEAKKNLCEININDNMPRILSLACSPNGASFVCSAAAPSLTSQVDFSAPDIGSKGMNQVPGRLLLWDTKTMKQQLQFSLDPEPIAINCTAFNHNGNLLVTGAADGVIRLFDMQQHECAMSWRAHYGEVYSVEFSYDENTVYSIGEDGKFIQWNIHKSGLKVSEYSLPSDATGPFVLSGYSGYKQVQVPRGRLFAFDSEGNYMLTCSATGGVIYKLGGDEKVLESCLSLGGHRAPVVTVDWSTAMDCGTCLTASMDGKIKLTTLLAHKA
- protocol_description: Binding affinity to C-terminal His6-tagged truncated WDR91 (unknown origin) (P392 to A747 residues) expressed in baculovirus-infected Sf9 cells assessed as covalent adduct formation incubated for 2 hrs by LC-MS analysis
Active and inactive are the calls of the source. The rule behind the calls is not given here.
Your answer must be one of the following: active, inactive

Consider the following illustrative entries.
> print(dat)
                                   compound                             target.entity  class.label
1  C=CC(=O)N1CCCc2c(C(=O)NC(c3ccc(Cl)cc3)C3CC3)cccc21 (centres undefined)  WD repeat-containing protein 91 (Homo sapiens) (UniProt A4D1P6)       active
2  C=CC(=O)Nc1ccc(CC(=O)NC2(c3ccccc3)COC2)cc1  WD repeat-containing protein 91 (Homo sapiens) (UniProt A4D1P6)     inactive
3  C=CC(=O)N1CCCc2c(C(=O)NC(c3ccc(F)cc3)C3CCCCC3)cccc21 (centres undefined)  WD repeat-containing protein 91 (Homo sapiens) (UniProt A4D1P6)     inactive

Now let's try a different one.
Could you please tell me the result logged for `C=CC(=O)N1CCCc2c(C(=O)NC3(c4ccc(Cl)cc4)COC3)cccc21` in this assay?
active

###

pKd values, listed per item
- target_entity: WD repeat-containing protein 91 (Homo sapiens, UniProt A4D1P6)
- Sequence (A4D1P6 whole entry): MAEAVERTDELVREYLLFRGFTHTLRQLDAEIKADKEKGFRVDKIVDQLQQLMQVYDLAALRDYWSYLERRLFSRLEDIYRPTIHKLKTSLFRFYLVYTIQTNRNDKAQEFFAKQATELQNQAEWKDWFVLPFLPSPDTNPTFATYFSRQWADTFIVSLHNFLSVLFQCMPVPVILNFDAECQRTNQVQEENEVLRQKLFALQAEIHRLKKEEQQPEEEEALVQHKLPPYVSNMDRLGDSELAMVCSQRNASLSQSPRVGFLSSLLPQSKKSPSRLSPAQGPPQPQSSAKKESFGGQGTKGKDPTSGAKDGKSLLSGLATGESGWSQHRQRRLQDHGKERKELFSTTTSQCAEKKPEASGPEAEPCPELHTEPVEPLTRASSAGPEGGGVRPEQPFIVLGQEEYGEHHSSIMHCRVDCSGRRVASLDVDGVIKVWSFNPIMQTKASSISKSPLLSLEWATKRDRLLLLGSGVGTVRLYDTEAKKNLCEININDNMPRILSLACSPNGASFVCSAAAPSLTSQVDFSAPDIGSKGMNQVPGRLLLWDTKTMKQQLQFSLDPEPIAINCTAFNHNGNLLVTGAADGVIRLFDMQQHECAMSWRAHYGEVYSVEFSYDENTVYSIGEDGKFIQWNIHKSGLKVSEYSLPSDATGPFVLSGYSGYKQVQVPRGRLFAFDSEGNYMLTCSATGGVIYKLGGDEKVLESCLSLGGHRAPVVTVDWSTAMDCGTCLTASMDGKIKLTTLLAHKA
- protocol_description: Binding affinity to C-terminal His6-tagged truncated WDR91 (unknown origin) (P392 to A747 residues) expressed in baculovirus-infected Sf9 cells assessed as dissociation constant incubated for 72 to 96 hrs by SPR analysis
Please report pKd as the negative decimal logarithm of the molar concentration, giving only the number.

Identify measured pKd associated with NC(=O)C1CCCN(c2ccc(C(=O)NC(c3ccc(Cl)cc3)C3CC3)cc2)C1 (stereo not given)
4.43
